Data credit: paper PMC4770307

TARGET OR TEST SYSTEM: Brd2(2)W370H (Homo sapiens, UniProt P25440, W370H)
Construct: first bromodomain (e.g., Brd2(1)) versus second bromodomain (e.g., Brd2(2)); His6 (TEV-cleavable) (N); made in house; host or cells: E. coli BL21(DE3)
Sequence (P25440 344-453 W370H limits assumed): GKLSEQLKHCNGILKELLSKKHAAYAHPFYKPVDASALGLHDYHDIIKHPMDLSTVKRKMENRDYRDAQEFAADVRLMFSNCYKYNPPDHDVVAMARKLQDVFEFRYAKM
EXPERIMENT NOTES: Differential scanning fluorimetry (DSF) thermal shift
Type: binding
COND: compound 10 μM (LightCycler480) or 30 μM (Mx3005P), read-out: Thermal stabilization (ΔTm)
Recorded ΔTm at 10 µM values for a group of compounds are listed next.
MEASURED PROPERTY: ΔTm at 10 µM (°C)

1. COC(=O)CC1N=C(c2ccc(Cl)cc2C)c2cc(OC)ccc2-n2c(C)nnc21 (centres unmarked) | 1.1
2. COC(=O)CC1N=C(c2cc(C)ccc2C)c2cc(OC)ccc2-n2c(C)nnc21 (centres unmarked) | -0.1
3. COC(=O)CC1N=C(c2ccc(Cl)c(C)c2)c2cc(OC)ccc2-n2c(C)nnc21 (centres unmarked) | 1
4. COC(=O)CC1N=C(c2cccc3[nH]ccc23)c2cc(OC)ccc2-n2c(C)nnc21 (centres unmarked) | 2.7
5. COC(=O)CC1N=C(c2cc(Cl)ccc2Cl)c2cc(OC)ccc2-n2c(C)nnc21 (centres unmarked) | -0.4

====

TARGET OR TEST SYSTEM: Brd2(1)L110I (Homo sapiens, UniProt P25440, L110I)
Construct: first bromodomain (e.g., Brd2(1)) versus second bromodomain (e.g., Brd2(2)); His6 (TEV-cleavable) (N)
Sequence (P25440 74-180 L110I limits assumed): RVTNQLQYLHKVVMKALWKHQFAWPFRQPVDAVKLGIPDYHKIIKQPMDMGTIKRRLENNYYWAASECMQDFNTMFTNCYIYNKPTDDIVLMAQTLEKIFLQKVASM
EXPERIMENT NOTES: Isothermal titration calorimetry (ITC)
COND: ITC at 25 °C
MEASURED PROPERTY: Kd (nM)

1) COC(=O)[C@H](C)[C@@H]1N=C(c2ccc(Cl)cc2)c2cc(OC)ccc2-n2c(C)nnc21 [ME] | 260

====

TARGET OR TEST SYSTEM: Brd2(2) (Homo sapiens)
Construct: first bromodomain (e.g., Brd2(1)) versus second bromodomain (e.g., Brd2(2)); His6 (TEV-cleavable) (N); made in house; host or cells: E. coli BL21(DE3); plasmid a gift of the SGC Oxford
Sequence (P25440 344-453 limits assumed): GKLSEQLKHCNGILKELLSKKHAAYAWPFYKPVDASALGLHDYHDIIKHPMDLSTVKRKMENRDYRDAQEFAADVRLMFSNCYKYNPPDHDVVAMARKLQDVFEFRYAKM
EXPERIMENT NOTES: Differential scanning fluorimetry (DSF) thermal shift
Type: binding
COND: compound 10 μM (LightCycler480) or 30 μM (Mx3005P), read-out: Thermal stabilization (ΔTm)
Recorded ΔTm at 10 µM values for a group of compounds are listed next.
MEASURED PROPERTY: ΔTm at 10 µM (°C)

1. COC(=O)[C@H](C)[C@@H]1N=C(c2ccc(Cl)cc2)c2cc(OC)ccc2-n2c(C)nnc21 | 5.6
2. COC(=O)CC1N=C(c2ccc(Cl)cc2)c2cc(OC)cc(C)c2-n2c(C)nnc21 (centres unmarked) | 4
3. COC(=O)[C@@H](C)[C@@H]1N=C(c2ccc(Cl)cc2)c2cc(OC)ccc2-n2c(C)nnc21 | 0.2
4. COC(=O)CC1N=C(c2ccc(Cl)cc2C)c2cc(OC)ccc2-n2c(C)nnc21 (centres unmarked) | 6.6
5. COC(=O)CC1N=C(c2cc(Cl)ccc2Cl)c2cc(OC)ccc2-n2c(C)nnc21 (centres unmarked) | 2.5
6. COC(=O)CC1N=C(c2cccc3[nH]ccc23)c2cc(OC)ccc2-n2c(C)nnc21 (centres unmarked) | 7.7
7. COC(=O)CC1N=C(c2cc(C)ccc2C)c2cc(OC)ccc2-n2c(C)nnc21 (centres unmarked) | 3.5
8. COC(=O)CC1N=C(c2ccc(Cl)c(C)c2)c2cc(OC)ccc2-n2c(C)nnc21 (centres unmarked) | 3.2
